Note to self: these compounds have pKi reported for Carbonic anhydrase 12 (Homo sapiens) in various publications.
Give only the number. pKi is defined as minus log10 of concentration in molar units.

Give pKi (Carbonic anhydrase 12 (Homo sapiens)) of the following compound: Cc1cc(=O)oc2c(CN3CCN(CCO)CC3)c(O)ccc12
8.15

Test system Carbonic anhydrase 12 (Homo sapiens); read-out pKi; what value for NS(=O)(=O)c1ccc(NC(=O)NC(=O)c2ccccc2)cc1 ?
7.19

Lookup: pKi / Carbonic anhydrase 12 (Homo sapiens) / NS(=O)(=O)c1ccc(-c2cn(CCCS(=O)(=O)[O-])nn2)cc1.[Na+]
8.17

Kindly state the measured pKi obtained for COc1cc(/C=C/C(=O)OCCCCCCCN(C)CCOC(=O)c2ccc(S(N)(=O)=O)cc2)cc(OC)c1OC with Carbonic anhydrase 12 (Homo sapiens).
7.45

Lookup: pKi / Carbonic anhydrase 12 (Homo sapiens) / Cc1nn(-c2ccccc2)cc1/C=C/C(=O)c1ccc(-c2cc3ccccc3oc2=O)nc1C
4.75

Request: pKi, test system Carbonic anhydrase 12 (Homo sapiens), entry CN1C(=O)C(=C2C(=O)Nc3c(Br)cccc32)SC1=Nc1ccc(S(N)(=O)=O)cc1
6.08

Provide the documented pKi with Carbonic anhydrase 12 (Homo sapiens) as the system for NS(=O)(=O)c1ccc(N2N=C(c3ccc(O)cc3)CC2c2ccccc2)cc1 (stereo not shown)
7.16

Recall the recorded pKi for NS(=O)(=O)c1ccc(N2CC[C@@H](NC(=O)Nc3ccc(F)cc3)C2)nc1 with Carbonic anhydrase 12 (Homo sapiens) and state it.
7.23

Test system Carbonic anhydrase 12 (Homo sapiens); read-out pKi; what value for COc1cc(C(=O)OCCCCCCN(C)CCCOC(=O)COc2ccc3ccc(=O)oc3c2)cc(OC)c1OC ?
8.05

Give the reported pKi for COc1cc(/C=C/C(=O)OCCCCCCN(C)CCCOC(=O)COc2ccc3ccc(=O)oc3c2)cc(OC)c1OC (system: Carbonic anhydrase 12 (Homo sapiens)).
8.19

Field: pKi (Carbonic anhydrase 12 (Homo sapiens)). Entry: CC[C@@H](C)[C@@H](NC(=O)OC(C)(C)C)C(=O)NCc1ccc(S(N)(=O)=O)cc1
7.30
